target-or-system: T1, human MSLN-hFc recombinant protein (human, UniProt Q13421 296-580)
T1 construct: Captured by an anti-human IgG antibody on the chip; also called human MSLN protein; Acro MSN-H5253
T1 sequence (Q13421 other isoform, or with tags, fused parts or gaps): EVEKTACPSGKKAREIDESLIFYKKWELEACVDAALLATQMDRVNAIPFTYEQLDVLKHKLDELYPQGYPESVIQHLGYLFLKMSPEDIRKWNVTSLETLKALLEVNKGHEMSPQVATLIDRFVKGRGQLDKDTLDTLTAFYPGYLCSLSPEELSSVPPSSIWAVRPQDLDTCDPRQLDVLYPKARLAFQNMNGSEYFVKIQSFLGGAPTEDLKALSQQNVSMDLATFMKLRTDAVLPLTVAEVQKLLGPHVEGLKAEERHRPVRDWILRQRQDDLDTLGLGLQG
method-summary: SPR (Biacore 8K), MSLN-hFc captured, antibody injected
The label is Condition met for kon below 30000 M⁻¹ s⁻¹ and Condition not met for kon equal to or exceeding 30000 M⁻¹ s⁻¹.

Asked: hey, is kon for F2.23.12-H5 (scFv, not shown: small tags and cut ends, also called S009-F2.23.12 humanized antibody VH2 + VL1) scFv: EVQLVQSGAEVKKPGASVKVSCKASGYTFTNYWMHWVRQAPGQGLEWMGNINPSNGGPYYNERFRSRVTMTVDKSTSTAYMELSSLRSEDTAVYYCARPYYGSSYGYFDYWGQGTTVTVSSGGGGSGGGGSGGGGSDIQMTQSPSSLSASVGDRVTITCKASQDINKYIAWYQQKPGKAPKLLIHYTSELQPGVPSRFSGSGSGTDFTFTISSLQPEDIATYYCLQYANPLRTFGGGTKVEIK lower than 30000 M⁻¹ s⁻¹ or not?
Given back: Condition not met

Asked: hey, is kon for F2.23.12-H13 (scFv, not shown: small tags and cut ends, also called S009-F2.23.12 humanized antibody VH4 + VL1) scFv: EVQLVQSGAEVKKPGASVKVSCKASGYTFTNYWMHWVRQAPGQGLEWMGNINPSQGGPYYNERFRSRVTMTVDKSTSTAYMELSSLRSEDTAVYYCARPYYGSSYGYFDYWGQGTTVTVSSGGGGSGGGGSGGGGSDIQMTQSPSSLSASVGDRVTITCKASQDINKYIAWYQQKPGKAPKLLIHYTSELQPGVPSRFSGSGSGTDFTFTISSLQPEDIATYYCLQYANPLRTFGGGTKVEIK lower than 30000 M⁻¹ s⁻¹ or not?
Given back: Condition met

Asked: hey, is kon for F3.80.22-H5 (scFv, not shown: small tags and cut ends, also called S009-F3.80.22 humanized antibody VL1a + VH1) scFv: DIVMTQTPLSLPVTPGEPASISCRSSQSLEHNDGNTYLHWFLQKPGQSPQLLIYKVSNRFSGVPDRFSGSGSGTDFTLKISRVEAEDVGVYYCSQSTHVPFTFGQGTKLEIKGGGGSGGGGSGGGGSEVQLVQSGAEVKKPGATVKISCKVSGYTFTDYEIHWVQQAPGKGLEWMGAFDPEIGGSAYNQKFKDRVTITADKSTDTAYMELSSLRSEDTAVYYCTDYYGSSSGYFDVWGQGTTVTVSS lower than 30000 M⁻¹ s⁻¹ or not?
Given back: Condition met

Asked: hey, is kon for F2.39.3-H2 (scFv, not shown: small tags and cut ends, also called S009-F2.39.3 humanized antibody VH1 + VL2) scFv: EVQLVQSGAEVKKPGASVKVSCKASGYTFTNYWMHWVRQAPGQGLEWMGNINPSSGDSYYNERFMSRVTMTVDKSTSTVYMELSSLRSEDTAVYYCARSGGLWLAFWGQGTLVTVSSGGGGSGGGGSGGGGSDIVMTQSPDSLAVSLGERATINCKSSQTLLNSVSQNNYLAWYQQKPGQSPTLLIYFASTRESGVPDRFSGSGSGTDFTLTISSLQAEDVAVYYCQQHYRTPYTFGGGTKVEIK lower than 30000 M⁻¹ s⁻¹ or not?
Given back: Condition not met

Asked: hey, is kon for F7.33.24-H5 (scFv, not shown: small tags and cut ends, also called S009-F7.33.24 humanized antibody VH1a + VL2) scFv: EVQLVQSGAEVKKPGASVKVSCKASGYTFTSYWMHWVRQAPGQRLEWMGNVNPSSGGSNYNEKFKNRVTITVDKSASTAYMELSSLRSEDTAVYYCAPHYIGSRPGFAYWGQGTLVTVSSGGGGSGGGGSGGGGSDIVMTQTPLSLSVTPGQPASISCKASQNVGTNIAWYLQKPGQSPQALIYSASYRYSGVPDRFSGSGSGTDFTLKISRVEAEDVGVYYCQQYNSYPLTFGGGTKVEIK lower than 30000 M⁻¹ s⁻¹ or not?
Given back: Condition not met
